Quick reference: log10 IC50 of the listed items.
system: U-266; experiment: cells; assay type: functional, cell-based; details: Homo sapiens, U-266, 72 h
Description: Growth inhibition of human U266 cells after 72 hrs by MTT assay
metric: log10 IC50 (log10 of the value in µM)

[[record]]
compound = "O=C(CCCCCCNC(=O)c1cnc(N(c2ccccc2)c2ccccc2)nc1)NO [RICOLINOSTAT]"
recordednumber = 1.33

[[record]]
compound = "CC1(C)CCC(CN2CCN(c3ccc(C(=O)NS(=O)(=O)c4ccc(NCC5CCOCC5)c([N+](=O)[O-])c4)c(Oc4cnc5[nH]ccc5c4)c3)CC2)=C(c2ccc(Cl)cc2)C1 [VENETOCLAX]"
recordednumber = 1.97

[[record]]
compound = "CC1(C)CCC(CN2CCN(c3ccc(C(=O)NS(=O)(=O)c4ccc(NCCCCCC(=O)NO)c([N+](=O)[O-])c4)c(Oc4cnc5[nH]ccc5c4)c3)CC2)=C(c2ccc(Cl)cc2)C1"
recordednumber = 1.43

[[record]]
compound = "CC1(C)CCC(CN2CCN(c3ccc(C(=O)NS(=O)(=O)c4ccc(NCCCCCCCC(=O)NO)c([N+](=O)[O-])c4)c(Oc4cnc5[nH]ccc5c4)c3)CC2)=C(c2ccc(Cl)cc2)C1"
recordednumber = 0.94

[[record]]
compound = "CC1(C)CCC(CN2CCN(c3ccc(C(=O)NS(=O)(=O)c4ccc(NCCCCCCC(=O)NO)c([N+](=O)[O-])c4)c(Oc4cnc5[nH]ccc5c4)c3)CC2)=C(c2ccc(Cl)cc2)C1"
recordednumber = 0.99

